B1: Hairpin Ribozyme (parent)
chain: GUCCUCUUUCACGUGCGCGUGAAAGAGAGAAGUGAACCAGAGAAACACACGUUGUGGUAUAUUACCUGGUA

Variants of: B1
Test: self-cleavage, relative activity (ratio to wild type); higher = more cleavage; co-transcriptional
Reported self-cleavage is given for each of the following variants.
Give the figure by itself; no unit, no explanation.

# count of solved cases: 2
U60C C65U : 0.909
A23C C37G : 0.159

Turning to the following variant.
response.value for U2C U14C (field: self-cleavage) = 0.359
